- Tested on: DU-145
- ASSAY_DETAILS: NCI tumour cell line growth inhibition, 48 h
The source made the active and inactive calls. Cut-off read from the data, not from the text of the source: active = GI50 up to about 1.1 µM and inactive = higher.
Give your call using only these classes: active, inactive

| COMPOUND | LABEL_CLASS |
| --- | --- |
| CCOC(=O)C(NC(=O)c1ccccc1)(Nc1ccc(S(=O)(=O)Nc2cc(C)nc(C)n2)cc1)C(F)(F)F (stereo not drawn) | inactive |
| O=C(O)c1ccccc1/C=C1/Nc2ccccc2C1=O | inactive |
| CC(C)OP(=O)(OC(C)C)C(Nc1cccc(C(F)(F)F)c1)c1ccccc1 (stereo not drawn) | inactive |
| CC(=O)OC1C(C)OC(OC(=O)C2CCC3C(C2)OC2(CC(OC(=O)/C=C/c4ccccc4)C(C)CO2)C32CO2)C(OC2OC(C)C(O)C(OC(C)=O)C2O)C1O (stereo not drawn) | active |
| Cc1ccc(N2C(=O)C(=O)N(/N=C3\C(=O)Nc4ccccc43)C2=S)cc1 | inactive |
| O=[N+]([O-])c1cc2c(c([N+](=O)[O-])c1)NCc1ccccc1O2 | inactive |

Look up the recorded call for O=c1[nH]c2ccccc2c(=O)n1/N=C\c1ccccc1O in this test.
inactive

Dear colleague, could you share the recorded outcome for O=C(Nc1ccccc1)c1cc(S(=O)(=O)Nc2nc3cccnc3[nH]2)c(SSc2cc(Cl)c(C(=O)Nc3ccccc3)cc2S(=O)(=O)Nc2nc3cccnc3[nH]2)cc1Cl when you have a moment?
inactive

Each compound tested received a call. Report the one for O=C(Nc1nc(C23CC4CC(CC(C4)C2)C3)cs1)c1cc2ccc(O)cc2oc1=O .
inactive

# lookup: test call for Cc1ccc([N+](=O)[O-])cc1S(=O)(=O)Nc1ccc(C2=NOC(c3ccco3)C2)cc1 (stereo not drawn)
inactive

Recorded test call requested for N#Cc1cc2c(cc1Cl)Sc1nnc(Nc3ccccc3)n1S2(=O)=O
inactive

---

- System: SK-MEL-28
- ASSAY_DETAILS: NCI tumour cell line growth inhibition, 48 h
The source made the active and inactive calls. Rule as the data show it: active = GI50 up to about 1.1 µM and inactive = higher.
TEST_READOUT: GI50

Use the examples below as a reference point.
| SMILES_REPR | TARGET_OR_SYSTEM | GI50 |
| --- | --- | --- |
| O=Cc1ccc(-c2ccc(S(=O)(=O)O)cc2)o1 | SK-MEL-28 | > 100 µM (inactive) |
| Cc1nc2sccn2c1/C=C1/C(=O)Nc2cccc(Cl)c21 | SK-MEL-28 | > 100 µM (inactive) |
| COC(=O)C1=C(C)N2[C@H](C(=O)O)CO[C@@]2(C)[C@H](C(=O)OC)[C@H]1c1cccc([N+](=O)[O-])c1 | SK-MEL-28 | > 100 µM (inactive) |
| CC1=NC(=Cc2ccccc2O)C(=O)N1n1c(-c2ccccc2)nc2ccccc2c1=O | SK-MEL-28 | 36.9 µM (inactive) |

Output measured GI50 for this item: CCN(CC)C(=O)C/C(C)=N/NC(=O)c1ccncc1
> 100 µM (inactive)

---

- Tested on: HOP-62
- ASSAY_DETAILS: NCI tumour cell line growth inhibition, 48 h
The source made the active and inactive calls. No stated cut-off is given here; in the data, active = GI50 up to about 1.1 µM and inactive = higher.
# key: entry, value: GI50

Observe how each entry below is paired with its result.
| COMPOUND | RESULT |
| --- | --- |
| COc1ccc2c(CC(=O)O)cc(=O)oc2c1 | > 100 µM (inactive) |
| OC(C1CCC=NN1C(O)(C(F)(F)F)C(F)(F)F)(C(F)(F)F)C(F)(F)F (stereo not drawn) | > 10 µM (inactive) |
| CCOC(=O)C(Br)(C(N)=O)C1(O)OC(c2ccccc2)=C(Br)C1=O (stereo not drawn) | 32.1 µM (inactive) |
| CCCNC(=O)c1cc2ccccc2cc1C(=O)OC | > 100 µM (inactive) |
| c1ccc(COc2ccc(CC3SCCCS3)cc2)cc1 | > 100 µM (inactive) |
| CN(C)CCC(C(=O)C(C)(C)C)c1ccccn1 (stereo not drawn) | > 100 µM (inactive) |

Consider the compound NC1OC(COC(=O)c2ccccc2)C(O)C(OC(=O)c2ccccc2)C1OC(=O)c1ccccc1 (stereo not drawn) . State its measured GI50.
22.7 µM (inactive)

Tell me its GI50 given CCOC(=O)/C=C1\c2ccccc2C(=O)N1CC(=O)OCC as the entry.
> 100 µM (inactive)

Quickly give me recorded GI50 for Nc1ccc(Oc2ccc(C3(c4ccc(Oc5ccc(N)cc5)cc4)C4CC5C6CC7CC5C3C(C7)C6C4)cc2)cc1
72.9 µM (inactive)

Return value of GI50 for input Cc1ccc(S(=O)(=O)NC(=O)NS(=O)(=O)O)cc1 , no commentary.
> 100 µM (inactive)

Report GI50 for Cc1oc2nc(N(C)C)nc(NN)c2c1C
> 100 µM (inactive)

Indicate its recorded GI50; the compound in question is CCOC(=O)c1c(-c2ccc(O)c(OC)c2)c(C#N)c(=S)n(C2OC(CO)C(O)C(O)C2O)c1-c1ccccc1 (stereo not drawn)
> 100 µM (inactive)

Please give measured GI50 of the following entry: COC(=O)C1Cc2c([nH]c3ccccc23)-c2[nH]c3ccccc3c2CC(NC(C)=O)C(=O)NCC(=O)NCC(=O)N1 (stereo not drawn)
> 100 µM (inactive)

Assign GI50 to the following record: CC(=O)OC1O[C@@H](C(C)(C)O)CC[C@@H]1[C@H]1CC[C@@]2(C)C3=C(CC[C@]12C)[C@@]1(C)C[C@@H](OC(=O)CC(C)(O)CC(=O)O)[C@H](OC(C)=O)C(C)(C)C1CC3 (stereo partly drawn)
18.8 µM (inactive)

Note GI50 for the compound shown: Cc1ccc(C(=O)CC(Cl)=C(Cl)Cl)cc1
> 100 µM (inactive)

Report GI50 for CN(C)CCN1CCc2c([nH]c3ccccc23)C1c1cccnc1 (stereo not drawn)
> 100 µM (inactive)

Look up and state reported GI50 for CC(ON(C(c1ccccc1)C(C)C)C(C)(C)C)c1ccccc1 (stereo not drawn)
19.4 µM (inactive)

Supply reported GI50 belonging to this compound: COC(=O)C1=C(C)N(NC(=O)OC(C)(C)C)C(=O)C1=P(c1ccccc1)(c1ccccc1)c1ccccc1
> 100 µM (inactive)

Return value of GI50 for input CCOC(=O)CCCOc1cc(-c2ccccc2F)nc2cc3c(cc12)OCO3 , no commentary.
> 100 µM (inactive)

Item Cn1sc2ccccc2c1=S : provide GI50
16.5 µM (inactive)

Give GI50 for the following compound: CCN(CC)c1nc(N(C)C)c2ccc(OC)cc2n1
19.7 µM (inactive)

Let me know recorded GI50 for O=C1CSSCC(=O)Nc2ccccc2N1 , thanks.
> 100 µM (inactive)

Output GI50 of O=C1C(Cl)=C(N2CCOCC2)C(=O)c2c(O)ccc(O)c21
0.853 µM (active)

Return reported GI50. Input compound: CC#CC#C/C=C1/O[C@]2(CCC(OC(=O)CC(C)C)CO2)[C@@H]2O[C@H]12 (stereo partly drawn)
42.7 µM (inactive)

---

- System: SF-268
- ASSAY_DETAILS: NCI tumour cell line growth inhibition, 48 h
Calls of active or inactive are those of the source. No stated cut-off is given here; in the data, active = GI50 up to about 1.1 µM and inactive = higher.
// one of Yes (active), No (inactive), no free text

| MOLECULE | TARGET_OR_SYSTEM | LABEL_CLASS |
| --- | --- | --- |
| CCN(CC)c1nc(N(C)C)c2ccc(OC)cc2n1 | SF-268 | No |
| Cc1[nH]n(-c2ncc(C(=O)O)c(=O)[nH]2)c(=O)c1CCO | SF-268 | No |
| O=C1/C(=N/CCc2cc(Br)c(O)c(Br)c2)C=C(O)c2cccnc21 | SF-268 | No |
| c1ccc2c(c1)SCCC2NC1=NCCO1 (centres undefined) | SF-268 | No |

Any idea what this test logged for O=C1CC(c2cccc(Br)c2)n2cccc21 (centres undefined) ?
No

What did the test return for Oc1c(Br)c(-c2ccccc2)nc2ccccc12 ?
No

Identify the outcome logged in this assay for the molecule shown: CN(C)c1ccc(/C=N/n2c(-c3ccccc3)nc3ccccc3c2=O)cc1
No

For Cc1cccc(/N=C2\NC(=O)C(CC(=O)Nc3ccc(C)cc3C)S2)c1 (centres undefined) , what call appears in the results of this test?
No

How did this test come out for O=C(O)C(CCc1ccccn1)c1ccccc1 (centres undefined) ?
No

Record lookup: outcome of this test for CCCCCCCC(=O)OCC1OC(n2cc(F)c(=O)[nH]c2=O)C(N)C(OC(=O)CCCCCCC)C1O (centres undefined) ?
No

Could you kindly confirm the outcome this assay logged for O=C1Cc2cc3ccccc3nc2-c2ccccc2N1 ?
No

# fetch the recorded call for OC(C1CCC=NN1C(O)(C(F)(F)F)C(F)(F)F)(C(F)(F)F)C(F)(F)F (centres undefined) here
No

Which outcome did this test record for the molecule COc1cc2cc(C(=O)Nc3cc4n(n3)-c3ccccc3C4)[nH]c2c(OC)c1OC ?
No

Give the logged outcome of this assay for the following molecule: Cc1n[nH]c(=S)n1/N=C/c1ccc(-c2ccc(Cl)cc2)o1
No

Identify the outcome logged in this assay for the molecule shown: Cc1c(-c2ccccc2)[nH]c2ccc(Cl)cc2c1=O
No

// outcome(item) with item = CC1(c2ccc(Cl)s2)CC(c2ccc(Cl)s2)=C(C#N)C(=C(C#N)C#N)N1 (centres undefined)
No

Ref: ChEMBL document CHEMBL1201862
